- Test system: S. epidermidis ATCC 12228
- testMethodNotes: Antibacterial activity: MIC/MBC determination and disc-diffusion
- Type: cell-based
- setupConditions: Staphylococcus epidermidis, ATCC12228; S. epidermidis ATCC 12228; read-out: MIC

{"columns": ["compound", "MIC / µg/mL"],
 "data": [
  ["CC(=O)CCSc1c(F)cc2c(c1F)[Si](C)(C)OB2O [Compound 3]", 25],
  ["C[Si]1(C)OB(O)c2cc(F)c(SC3CC(=O)N(c4ccc(Br)c(C(F)(F)F)c4)C3=O)c(F)c21 (stereo not drawn) [Compound 16]", 50],
  ["C[Si]1(C)OB(O)c2cc(F)c(S(=O)(=O)Nc3ccc(F)cc3)c(F)c21 [Compound 28]", 50],
  ["CC(=O)CSc1ccc2c(c1F)[Si](C)(C)OB2O [Compound 22]", 6.25],
  ["CC(=O)NC[C@H]1CN(c2ccc(N3CCOCC3)c(F)c2)C(=O)O1 [LIN, linezolid, reference compound]", 1],
  ["C[Si]1(C)OB(O)c2ccc(SC3CC(=O)N(c4ccc(F)cc4)C3=O)c(F)c21 (stereo not drawn) [Compound 15]", 12.5],
  ["C[Si]1(C)OB(O)c2cc(F)c(S(=O)(=O)N3CCOCC3)c(F)c21 [Compound 29]", 400],
  ["C[Si]1(C)OB(O)c2cc(F)c(SCCC(N)=O)c(F)c21 [Compound 7]", 100],
  ["C[Si]1(C)OB(O)c2cc(F)c(SCCC(=O)ON3C(=O)CCC3=O)c(F)c21 [Compound 5]", 400]
]}
